target: T1, recombinant human PD-1 expressed with a C-terminal myc-myc-hexahistidine tag (human); assay: SPR (Biacore), mAb captured, hPD-1-MMH injected, 25 C;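 note: rate constants obtained by fitting sensorgrams to a 1:1 binding model, KD derived as kd/ka and half-life as ln2/(60·kd) in minutes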
T1 construct: also called hPD-1-MMH; human PD-1-MMH
T1 sequence (chain, as listed by the source limits assumed): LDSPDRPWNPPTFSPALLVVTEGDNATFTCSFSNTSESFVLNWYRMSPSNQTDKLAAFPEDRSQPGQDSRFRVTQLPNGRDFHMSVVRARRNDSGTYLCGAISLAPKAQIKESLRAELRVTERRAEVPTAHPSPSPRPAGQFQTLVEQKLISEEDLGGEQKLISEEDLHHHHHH
Property Measured: koff (s⁻¹)
Field format: number, assumed s⁻¹, no unit text.

I am curious: what koff value has been reported for H4H7795N2 (antibody, human IgG4 S228P, kappa, V domains shown) VH: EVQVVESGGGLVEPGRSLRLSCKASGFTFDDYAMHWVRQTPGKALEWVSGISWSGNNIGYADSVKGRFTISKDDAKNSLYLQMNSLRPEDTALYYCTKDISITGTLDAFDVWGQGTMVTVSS VL: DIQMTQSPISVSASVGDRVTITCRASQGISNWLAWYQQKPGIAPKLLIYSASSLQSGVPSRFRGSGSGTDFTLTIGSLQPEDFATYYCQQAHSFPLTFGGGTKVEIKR ?
0.00148

I am curious: what koff value has been reported for H2aM7780N (antibody, mouse IgG2a, V domains shown, also called H2M7780N) VH: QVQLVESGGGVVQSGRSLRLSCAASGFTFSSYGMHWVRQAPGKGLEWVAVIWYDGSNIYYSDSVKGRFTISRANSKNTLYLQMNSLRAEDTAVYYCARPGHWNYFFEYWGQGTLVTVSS VL: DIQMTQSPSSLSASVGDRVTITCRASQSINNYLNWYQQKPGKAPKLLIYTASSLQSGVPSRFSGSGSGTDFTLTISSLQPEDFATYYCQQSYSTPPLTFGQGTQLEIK ?
0.000359
